Cited source: ChEMBL document CHEMBL3507680

- Procedure details: Human HepG2 cell viability assay in 384 well format
- Type: toxicity, cell-based
- Set-up: dose 125 nL, time 70.5 hour; concentration not given beside the values
- Test parameters: HepG2 cells, read-out: Inhibition
Measured quantity: cytotoxicity at 70.5 h
Kindly report the value followed by its unit.

The recorded cytotoxicity at 70.5 h for entry `Cc1nn(Cn2ccc(C(=O)N3CCOCC3)n2)c(C)c1Cl` equals -9.86%

Data point: `CC(C)CN1CCn2c(nc3cc(C(=O)NC(C)C)ccc32)C1` ; cytotoxicity at 70.5 h = -11.8%

The measured cytotoxicity at 70.5 h associated with Clc1ccc2cccnc2c1CN1CCCC(Cn2cncn2)C1 (configuration not stated) reads -14.3%

Entry `CCOc1ccc(Oc2cc(CN)ccn2)cc1` , cytotoxicity at 70.5 h reported as -27.6%

The measured cytotoxicity at 70.5 h associated with `Cc1noc([C@H]2COC[C@H]3CN(C(=O)Cc4ccsc4)C[C@H]32)n1` reads -20.1%

Value of measured cytotoxicity at 70.5 h for the entry `CC(C)CN1CCS(=O)(=O)[C@@H]2CCN(S(=O)(=O)C3CC3)CC[C@@H]21` : -16.5%

Entry `COCCN1CCCC12CCN(Cc1cccnc1OC)CC2` — recorded cytotoxicity at 70.5 h = 31.2%

The reported cytotoxicity at 70.5 h of the compound `COCCn1ccc2cc(C(=O)N3CCN(S(C)(=O)=O)CC3)ccc21` was -5.85%

The reported value for `CC(=O)Nc1cccc(C(=O)Nc2cnc3n2CCCC3)c1` in terms of cytotoxicity at 70.5 h is -5.75%

Reported cytotoxicity at 70.5 h ( `Cn1cnc(S(=O)(=O)N2CCCC2)c1Cl` ) = -10.3%

The value of cytotoxicity at 70.5 h measured for the compound `O=C1[C@H]2CC[C@H](CN(Cc3ccccc3OC(F)F)C2)N1CC1CC1` turned out to be -7.82%

// recorded cytotoxicity at 70.5 h for Cc1nc(C)n(CC2CN(Cc3ccccc3OC(C)C)CCO2)n1 (configuration not stated) : -9.52%

Documented cytotoxicity at 70.5 h of `CC(C)OCc1cccc(NC(=O)N(C)Cc2ncnn2C)c1` : -9.1%

# compound `CCn1cc(CN2CCc3nc(-c4ccccn4)nc(O)c3C2)cn1` ; its cytotoxicity at 70.5 h = -10%

Lab note: measured cytotoxicity at 70.5 h of `O=S(=O)(Nc1ccc(N2CCOCC2)cc1)c1cccc(F)c1` was -1.37%

The reported cytotoxicity at 70.5 h of the compound Cc1cnn(C2CCCN(C(=O)c3cccc(Cn4ccnc4)c3)C2)c1 (configuration not stated) was 20.1%

Looking up `CC(C)NC(=O)N[C@H]1C[C@@H](c2nc(-c3ccncc3)no2)N(C)C1` , I found its cytotoxicity at 70.5 h recorded as -5.9%

Reported cytotoxicity at 70.5 h of CC(NC(=O)NCCc1nc(C(F)(F)F)cs1)C(=O)N(C)C (configuration not stated) : -7.19%

Reported cytotoxicity at 70.5 h ( `Cc1nc(CO[C@H]2CN(C(=O)c3cccn3C)[C@@H]3COC[C@H]23)cs1` ) = -11.5%

So, `Cc1cc(C(=O)N2CCCC2)ccc1NCCOCC(F)(F)F` ? Its cytotoxicity at 70.5 h was 9.16%

get_value(item= `CCOc1cccc2c1OCC(C(=O)NS(=O)(=O)Cc1ccccc1)=C2` , readout=cytotoxicity at 70.5 h) returns 1.24%

The compound listed as CC(NC(=O)NCCOc1ccc(Cl)cc1)c1nncn1C (configuration not stated) shows cytotoxicity at 70.5 h equal to -12.4%

Consider `COCCN1CCC(Cc2cnc(-c3ccccc3C(=O)O)cn2)CC1` . Its measured cytotoxicity at 70.5 h is 8.51%

GET /value?item= Cc1nc(N)c2ccc(C3CCCN3)nc2n1 (configuration not stated) &field=cytotoxicity at 70.5 h returns -9.62%

Field cytotoxicity at 70.5 h (entry `COc1ccc2cnn(CC(=O)NC3CCCCC3)c(=O)c2c1OC` ) reads 1.17%

The measured cytotoxicity at 70.5 h associated with `Cc1oncc1C(=O)N1CCc2ncnc(-c3cnn(C)c3)c2CC1` reads -1.31%

Given item `O=C(C1CC=CC1)N1CCC2(CC1)CNCCO2` , the value recorded as its cytotoxicity at 70.5 h is -5.99%

Entry `Cc1nc(CCCNC(=O)[C@H]2CNC[C@@H](C(=O)N3CCCC3)C2)sc1C` , cytotoxicity at 70.5 h reported as -5.47%

Field cytotoxicity at 70.5 h (entry `Cc1cccc(N2CCC(NCc3cnc(C4CCC4)s3)CC2)n1` ) reads 3.13%

Item: Cc1cc(C)n(CC(C)NC(=O)C2(c3ccc(F)cc3)CC2)n1 (configuration not stated) | cytotoxicity at 70.5 h: -10.8%

cytotoxicity at 70.5 h recorded for this compound, `CS(=O)(=O)NCCn1ccc(-c2cccs2)n1` , is -6.85%

The compound `CCc1ccccc1OCCN(C)C(=O)CCN1CCCCO1` showed cytotoxicity at 70.5 h equal to -7.24%

Recorded result, Cc1nccc(C2CCCCN2Cc2ccc(F)cc2)n1 (configuration not stated) , cytotoxicity at 70.5 h: 10.1%

Entry under test: `COc1cc(Cl)c(C)cc1NC(=O)CCNc1ccc(C#N)cn1` . Its cytotoxicity at 70.5 h was 9.88%

Data point: `Cn1cc(CN2CCc3c(cnc(-c4ccccc4)c3C(=O)O)C2)cn1` ; cytotoxicity at 70.5 h = -5.39%

The compound listed as CC(=O)N(Cc1noc(C)n1)C1CCN(Cc2ccc(C#N)cc2)C1 (configuration not stated) shows cytotoxicity at 70.5 h equal to 30.3%

Value of measured cytotoxicity at 70.5 h for the entry Cc1nnc(CNC(C)c2cc(C)c(F)c(C)c2)s1 (configuration not stated) : -5.2%

Value of cytotoxicity at 70.5 h reported for the compound CN1CC2(CCN(C(=O)CCc3nc4cccnc4n3C)C2)OC1=O (configuration not stated) is 15.3%

// recorded cytotoxicity at 70.5 h for Cc1cnn(CC2CN(CCCS(=O)(=O)N(C)C)CCO2)c1 (configuration not stated) : -10.7%

The compound `COCCN1CC[C@H]2OCC[C@@H](C(=O)N3CCCO3)[C@H]2C1` showed cytotoxicity at 70.5 h equal to 47%

So for Fc1ccc(-c2nc(CN3CCCCC3Cn3cncn3)co2)cc1 (configuration not stated) , the logged cytotoxicity at 70.5 h turned out to be -3.61%

Lab book: cytotoxicity at 70.5 h of `CCCNC(=O)NCc1ccccc1NS(=O)(=O)c1ccccc1` noted as -0.797%

Lookup result for `CC[C@@H](C)[C@@H](N)C(=O)Nc1cccc(-c2cnc(N(C)C)nc2)c1` ; measured cytotoxicity at 70.5 h: -4.42%

For reference, reported cytotoxicity at 70.5 h for Cc1cccnc1CNCC1(O)CCCN(CC2CCCCC2)C1=O (configuration not stated) stands at -7.77%

Form field cytotoxicity at 70.5 h, entry `Cn1c(=O)oc2ccc(Nc3ncc(C#N)cc3Cl)cc21` : -2.37%

For Cc1nc2n(n1)CC(NCc1ccnc(-c3ccccc3)n1)CC2 (configuration not stated) the compound record lists cytotoxicity at 70.5 h as -2.5%

Just so you know, measured cytotoxicity at 70.5 h for `OC[C@@H]1CCCN1c1ccc(-c2nc(CCc3ccccc3)no2)cn1` came out at -4.61%

###

- Procedure details: Human HepG2 cell viability assay in 384 well format
- Type: toxicity, cell-based
- Parameters: dose 125 nL, time 70.5 hour; concentration not given beside the values
- Test parameters: HepG2 cells, read-out: Inhibition
Measured quantity: cytotoxicity at 70.5 h (%)
Answer with a number only, understood to be in %.

cytotoxicity at 70.5 h in this record for `COc1ccccc1OCCN(C)c1cc(C)nc(N)n1` : 18.7

Notebook: CCS(=O)(=O)N1Cc2ccnn2CC(c2nc(C)no2)C1 (centres undefined) , cytotoxicity at 70.5 h read as -9.51

# molecule `COc1c(CNCc2cccc(Cn3cccn3)c2)c(C)nn1C` ; its cytotoxicity at 70.5 h = 3.69

The measured cytotoxicity at 70.5 h associated with CS(=O)(=O)c1cc(S(N)(=O)=O)ccc1NCC1CCCO1 (centres undefined) reads -3.22

Quick note, cytotoxicity at 70.5 h for `CS(=O)(=O)Cc1cccc(CNS(=O)(=O)c2ccc(F)c(F)c2)c1` landed at -8.75

cytotoxicity at 70.5 h recorded for this molecule, `Cc1ccccc1C(=O)NC1CCN(Cc2ncc(C(C)(C)C)o2)CC1` , is -0.562

For `N#Cc1cc(CSCCN2CCOCC2)ccc1F` the molecule record lists cytotoxicity at 70.5 h as -13.8

# molecule `CN(Cc1cc(C(C)(C)C)n[nH]1)C(=O)c1ccc2nccn2c1` ; its cytotoxicity at 70.5 h = -2.34

Sure, the documented cytotoxicity at 70.5 h for COc1cccc(CCNC(=O)CN2CCCC2c2noc(C)n2)c1 (centres undefined) is -6.83

The measured cytotoxicity at 70.5 h associated with Cc1nccn1C1CCCN(C(=O)c2cc(Cl)c3c(c2)OCO3)C1 (centres undefined) reads -5.54

Record summary for `CC1(C)OC(=O)N(CCOc2ccc(F)cc2)C1=O` : reported cytotoxicity at 70.5 h = -4.69

For `O=C(NC1CC1)[C@@H]1CCO[C@@H]2CCN(C3CCOCC3)C[C@H]21` the molecule record lists cytotoxicity at 70.5 h as -4.77

Summary for this molecule, Cc1ccc(C(=O)NCC(O)CN2CCCC2=O)cc1Cl (centres undefined) : cytotoxicity at 70.5 h is 6.85

Short answer for `COC(=O)c1ccc2c(-c3ccnc(N[C@@H](C)CO)n3)c[nH]c2c1` : cytotoxicity at 70.5 h was -2.09

// sample Cc1cnn(CC2CCCN2Cc2nnc(C3CC3)o2)c1 (centres undefined) , its cytotoxicity at 70.5 h was 13.5

Documented cytotoxicity at 70.5 h of CNS(=O)(=O)c1ccc(C(=O)N2CCCCC2c2ccc(C)cc2)o1 (centres undefined) : -2.53

Per the records, this molecule ( `COc1ccccc1C1(CNc2cn[nH]c(=O)c2Cl)CCOCC1` ) has cytotoxicity at 70.5 h equal to -13.8

Notebook: Cc1ccc(C)c(CS(=O)(=O)CC(=O)NC(C)c2ccc(F)cc2F)c1 (centres undefined) , cytotoxicity at 70.5 h read as 8.01

The recorded cytotoxicity at 70.5 h for entry `COCC(=O)N(Cc1cccnc1)CC1CCN(C2CCCC2)CC1` equals 1.31

Entry `CC(C)(O)CCc1cccc(C(=O)N2CCC3(CCOCC3)CC2)c1` ; cytotoxicity at 70.5 h = -2.42

Reported cytotoxicity at 70.5 h of `CC(C)N1C(=O)C[C@H]2[C@@H]1CCN2C(=O)c1ccco1` : 24.5

Per the record, `Cc1[nH]c2ccccc2c1CCNc1ncnc2c1CCNCC2` has cytotoxicity at 70.5 h of 0.111

Record `O=C(COc1cccc2c1CCC2=O)NCc1ccccc1Cl` , field cytotoxicity at 70.5 h: -10.6

cytotoxicity at 70.5 h recorded for this molecule, `CC1(C)OCC2(CO1)CN(C(=O)c1ccccc1Cl)C2` , is -1.63
